# System: Vero E6 infected with SARS-CoV-2
# Test Protocol: SARS-CoV-2 infection rate relative to infected DMSO; higher = more infection, active = 60 or less
# Particulars: 24 h
Property Label: SARS-CoV-2 infection rate (%)
Expressed in %, but write only the number.

Use these answered entries as a reference point.
Cc1ncc(NC(=O)c2ccc(CN3CCN(C)CC3)c(C(F)(F)F)c2)cc1Nc1nccc(-c2cccnc2)n1 [flumatinib] (10 µM)
25.5
CN1CCC[C@@H](CC2c3ccccc3Sc3ccccc32)C1 (racemic) [metixene] (0.833333 µM)
86
CCN[C@H]1C[C@H](C)S(=O)(=O)c2sc(S(N)(=O)=O)cc21 [dorzolamide] (10 µM)
100
COc1cc(Br)c(S(=O)(=O)Nc2ccc(Cl)c(O[C@@H]3CCN(C)C3)c2)cc1OC (10 µM)
102

# return SARS-CoV-2 infection rate of CC(C)(C)NCC(O)c1cc(O)cc(O)c1 (centres undefined) (10 µM) (system: Vero E6 infected with SARS-CoV-2) 113

Give Vero E6 infected with SARS-CoV-2 SARS-CoV-2 infection rate for the following compound: O=C(O)CC1CC(c2ccccc2)=NO1 (centres undefined) (10 µM) 116

Would you please give the reported SARS-CoV-2 infection rate of CC(C)(C)C#Cc1cc(N(C(=O)[C@H]2CC[C@H](C)CC2)[C@H]2CC[C@@H](O)CC2)c(C(=O)O)s1 (10 µM) with Vero E6 infected with SARS-CoV-2? 107

Print Vero E6 infected with SARS-CoV-2 SARS-CoV-2 infection rate for O=C(NCCS(=O)(=O)c1ccc(C(F)(F)F)cn1)c1ccc(Cl)cc1 (10 µM) . 99

State recorded SARS-CoV-2 infection rate with Vero E6 infected with SARS-CoV-2, entry COc1cc(CNC(=O)CCCC/C=C/C(C)C)ccc1O [capsaicin] (10 µM) , no comment. 107
